Assay: Half-life in cynomolgus monkey at 0.5 mg/kg, po
Type: ADME, organism-based, Macaca fascicularis
Design: dose 0.5 mg/kg, route oral
Details: in vivo
Quantity Kind: half-life

| Structure Smiles | Quantity Kind | Value |
| --- | --- | --- |
| CCc1cc2c(cc1N1CCN(C3COC3)CC1)C(C)(C)c1[nH]c3cc(C#N)ccc3c1C2=O | half-life | 375 min |

* * *

Assay: Clearance in human liver microsome at 1 uM after 30 mins by LC/MS analysis in the presence of NADPH
Type: ADME
Conditions: liver microsomes
Under this convention, 1.0 denotes microsomal CLint at 1 µM strictly below 20 µL/min/mg and 0.0 denotes microsomal CLint at 1 µM at or above 20 µL/min/mg.

| Structure Smiles | Answer Label |
| --- | --- |
| C#Cc1cc2c(cc1N1CCN(C3COC3)CC1)C(C)(C)c1[nH]c3cc(C#N)ccc3c1C2=O | 1.0 |
| CCCc1cc2c(cc1N1CCN(C3COC3)CC1)C(C)(C)c1[nH]c3cc(C#N)ccc3c1C2=O | 1.0 |
| CCc1cc2c(cc1N1CCN(C3COC3)CC1)C(C)(C)c1[nH]c3cc(C#N)ccc3c1C2=O | 1.0 |
| CC(C)c1cc2c(cc1N1CCN(C3COC3)CC1)C(C)(C)c1[nH]c3cc(C#N)ccc3c1C2=O | 1.0 |
| Cc1cc2c(cc1N1CCN(C3COC3)CC1)C(C)(C)c1[nH]c3cc(C#N)ccc3c1C2=O | 0.0 |
| CC1(C)c2cc(N3CCN(C4COC4)CC3)c(CCC3CCCC3)cc2C(=O)c2c1[nH]c1cc(C#N)ccc21 | 1.0 |
